System: HEK-293T
experiment: Multiplex assay against HEK293T
Assay type: toxicity, cell-based
measurement_setup: human, 12 h, 1 µM, compound concentration 1 uM, replicate 2
Reported Total Cell Count values follow for various compounds
Give the figure only, with no unit attached.

>  <smiles_record>
CCOc1cc(C(=O)N2CCC(N3CCN(C)CC3)CC2)ccc1Nc1ncc2c(n1)N(C1CCCC1)c1ccccc1C(=O)N2C

>  <Total Cell Count>
178

$$$$

Query (compound): "COC(=N)c1nc2ccc3ncnc(Nc4ccc(OC)cc4F)c3c2s1" ; field requested: Total Cell Count
1072

Now the compound "CCn1c(=O)c(-c2ccc(-c3cncs3)cc2Cl)cc2cnc(Nc3ccc(N4CCN(C)CC4)cc3)nc21"
288

Now the compound "S=C(NCCCc1c[nH]cn1)NCCCN(Cc1ccc(Cl)c(Cl)c1)c1ccc(Br)cn1"
240

Now the compound "CCc1cccc(CC)c1NC(=O)c1nn(C)c2c1CCc1cnc(Nc3ccc(C(=O)NC4CCN(C)CC4)cc3OC(F)(F)F)nc1-2"
251

Now the compound "O=C1NC(=O)C(c2cnc3ccccn23)=C1c1cn2c3c(cc(F)cc13)CN(C(=O)N1CCCCC1)CC2"
210

Now the compound "COc1ccc(-c2ccc3c(N4CCOCC4)nc(N4C[C@@H](C)O[C@@H](C)C4)nc3n2)cc1CO"
1701

Now the compound "CNc1cc(Oc2cc(C(=O)Nc3cc(N4CCN(C)CC4)cc(C(F)(F)F)c3)ccc2C)ncn1"
213

Now the compound "O=C1N/C(=N/c2ccccc2F)S/C1=C\c1ccc(C(=O)O)cc1"
145
